// provenance: patent US20230408517A1

- TEST_TARGET: rSARS2-B.1.617.2 S aa16-1211 10+4x aa mut., C-His (SARS-CoV-2, UniProt P0DTC2 16-1211)
- PROTOCOL_DESCRIPTION: flow cytometry, blocking of binding to hACE-2 cells
Would you kindly list percent blocking for each of these binders?
Give bare numbers, in %.

Consider the worked cases shown below.
BINDER	ENDPOINT	VALUE_OBSERVED
1035709 (antibody, V domains shown) VH: EVQLQQSGPELVKPGASVKISCKTSGYTFTEYTMHWVKQSHGKSLEWIGGINPNIVDTGYNQKFKGKATLTVDKSSSTAYMELRSLTSEDSAVYYCARDGYPLYYAMDYWGQGTSVTVSS VL: DIQMTQSPSSLSASLGERVSLTCRASQEISGYLSWLQQKPDGTIKRLIYAASTLDSGVPKRFSGSRSGSDYSLTISSLESEDFADYYCLQYASYPWTFGGGTKLEIK	percent blocking	58.8
1035740 (antibody, V domains shown) VH: EVLLQQSGPELVKPGASVKIPCKASGYTFTDYNMDWVKQSHGKSLEWIGDINPNNGFTIYNQKFKGKATLTVDKSSSTAYMELRSLTSEDTAVYYCAREGYGNYFDYWGQGTTLTVSS VL: DVLLTQSPAILSVSPGERVSFSCRASQSIGTSLHWYQQRTNGSPRLLIKYVSESISGIPSRFSGSGSGTDFTLSINSVESEDIADYYCQQSSSWPTTFGAGTKLELK	percent blocking	89.6

Let's switch to this binder now.
Consider the binder 1035224 (antibody, V domains shown) VH: EVQLQQSGAEFVRPGALVKLSCKASGFNIKDDYMHWVKQRPEQGLEWIGWIDPENGNSIYDPKFQGKASITADTSSNTAYLQLSSLTSEDTAVYYCARGEYFGSGSFAYWGQGTLVTVSA VL: QIVLTQSPAIMSASPGEKVTISCSASSSVSYMYWYQQKPGSSPKPWIYRTSNLASGVPARFSGSGSGTSYSLTISSMEAEDAATYYCQQYHSYPYMYTFGGGTKLEIK . State its measured percent blocking. 0
